Catalogue of IC50 readings, one per entry.
# system-tested: PDE4B1 (Homo sapiens, UniProt Q07343)
# Construct: made in house; host or cells: SF21 insect cells (baculovirus; pCR-Bac vector)
# Sequence (Q07343 whole entry): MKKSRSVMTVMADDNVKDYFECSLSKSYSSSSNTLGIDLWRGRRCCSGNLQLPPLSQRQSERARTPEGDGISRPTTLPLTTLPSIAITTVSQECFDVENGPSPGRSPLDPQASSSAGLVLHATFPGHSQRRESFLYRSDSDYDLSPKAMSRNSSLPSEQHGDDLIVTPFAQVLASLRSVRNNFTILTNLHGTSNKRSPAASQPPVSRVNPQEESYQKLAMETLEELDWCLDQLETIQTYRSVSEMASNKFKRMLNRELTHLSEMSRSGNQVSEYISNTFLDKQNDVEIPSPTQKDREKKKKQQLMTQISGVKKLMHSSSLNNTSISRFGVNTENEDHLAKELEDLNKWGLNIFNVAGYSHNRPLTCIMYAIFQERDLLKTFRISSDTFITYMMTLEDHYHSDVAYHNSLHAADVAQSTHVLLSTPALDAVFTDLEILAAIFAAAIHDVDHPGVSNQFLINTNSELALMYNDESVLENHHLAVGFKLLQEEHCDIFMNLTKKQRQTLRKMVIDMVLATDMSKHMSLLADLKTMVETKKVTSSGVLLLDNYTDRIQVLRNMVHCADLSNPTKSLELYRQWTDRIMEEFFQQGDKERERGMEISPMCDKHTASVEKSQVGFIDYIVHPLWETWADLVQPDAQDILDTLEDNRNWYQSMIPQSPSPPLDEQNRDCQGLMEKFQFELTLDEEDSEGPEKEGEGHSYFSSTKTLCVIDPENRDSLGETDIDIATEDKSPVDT
# experiment-notes: Inhibition of PDE4B1 activity (SPA, [3H]cAMP)
# Format: biochemical
# test-conditions: recombinant PDE4B1 expressed in SF21 cells; 0.5 pM [sic] cAMP; values given as bins; read-out: PDE4B1 inhibitory values measured as −logIC50 (converted)

Examples from the recorded data:
- smiles-representation: "CCOc1cc2c(cc1OC)C(c1ccc(C(=O)N3CCC(n4c(=O)c5sc(-c6ccc(F)cc6)cc5n(Cc5nnn(CC)n5)c4=O)CC3)cc1)=N[C@@H]1CCSC[C@H]21"
  system-tested: "PDE4B1 (Homo sapiens, UniProt Q07343)"
  IC50: "> 10 nM"
- smiles-representation: "CCOc1cc2c(cc1OC)C(c1ccc(C(=O)N3CCC(n4c(=O)c5sc(-c6ccccc6)cc5n(Cc5cc(C)on5)c4=O)CC3)cc1)=N[C@@H]1CCSC[C@H]21"
  system-tested: "PDE4B1 (Homo sapiens, UniProt Q07343)"
  IC50: "1 to 10 nM"
- smiles-representation: "CCOc1cc2c(cc1OC)C(c1ccc(C(=O)N3CCC(n4c(=O)c5sc(-c6ccccc6)cc5n(Cc5nccn5C)c4=O)CC3)cc1)=N[C@@H]1CCSC[C@H]21"
  system-tested: "PDE4B1 (Homo sapiens, UniProt Q07343)"
  IC50: "< 1 nM"
- smiles-representation: "CCOc1cc2c(cc1OC)C(c1ccc(C(=O)N3CCC(n4c(=O)c5sc(-c6ccc(F)cc6OC)cc5n(Cc5nc(COC)no5)c4=O)CC3)cc1)=N[C@@H]1CCSC[C@H]21"
  system-tested: "PDE4B1 (Homo sapiens, UniProt Q07343)"
  IC50: "1 to 10 nM"
- smiles-representation: "CCOc1cc2c(cc1OC)C(c1ccc(C(=O)N3CCC(n4c(=O)c5sc(-c6ccccc6)cc5n(Cc5nc(CC)ns5)c4=O)CC3)cc1)=N[C@@H]1CCSC[C@H]21"
  system-tested: "PDE4B1 (Homo sapiens, UniProt Q07343)"
  IC50: "1 to 10 nM"

So what does the record say about IC50 for CCOc1cc2c(cc1OC)C(c1cccc(C(=O)N3CCC(n4c(=O)c5sc(-c6ccccc6)cc5n(Cc5nc(CC)no5)c4=O)CC3)c1)=N[C@@H]1CCSC[C@H]21 ?
1 to 10 nM

So what does the record say about IC50 for CCOc1cc2c(cc1OC)C(c1ccc(C(=O)N3CCC(n4c(=O)c5sc(-c6ccccc6)cc5n(Cc5nnc(CC)o5)c4=O)CC3)cc1)=N[C@@H]1CCSC[C@H]21 ?
< 1 nM

So what does the record say about IC50 for CCOc1cc2c(cc1OC)C(c1ccc(C(=O)N3CCC(n4c(=O)c5sc(-c6ccccc6)cc5n(Cc5nnc(C(C)(C)C)o5)c4=O)CC3)cc1)=N[C@@H]1CCSC[C@H]21 ?
1 to 10 nM

So what does the record say about IC50 for CCOc1cc2c(cc1OC)C(c1ccc(C(=O)N3CCC(n4c(=O)c5sc(-c6ccccc6)cc5n(Cc5cnc(C)s5)c4=O)CC3)cc1)=N[C@@H]1CCSC[C@H]21 ?
1 to 10 nM
